# Tested on: DOHH2 cells
# ASSAY COMMENT: Alamar Blue cytotoxicity study
# Type: cell-based, human
# RUN PARAMETERS: Homo sapiens, DOHH-2, read-out: IC50 at 120 h; DOHH2, 120 h incubation after seeding
PROPERTY: pIC50
Please treat pIC50 as minus the base-10 logarithm of the molar concentration.

// O=C(c1cc(Cc2n[nH]c(=O)c3ccccc23)ccc1F)N1CCN(C(=O)C2CC2)CC1 : pIC50 value = 5.12

====

# System: RIVA cells
# ASSAY COMMENT: Real Time Glo viability assay, Betalutin and cell cycle inhibitors (Example 2)
# Type: cell-based, human
# RUN PARAMETERS: Homo sapiens, RIVA, drug 100 nM, −Betalutin, Dy6; read-out: Growth inhibition (signal treated/control; 1 = no change)
PROPERTY: viability at 0.1 µM

viability at 0.1 µM measured on Cc1nc(N)sc1-c1ccnc(Nc2ccc(N3CCOCC3)cc2)n1 = 92%

So, Nc1nc(Nc2ccc(S(N)(=O)=O)cc2)nn1C(=O)c1c(F)cccc1F ? Its viability at 0.1 µM was 89%

Form: compound = C=CCn1c(=O)c2cnc(Nc3ccc(N4CCN(C)CC4)cc3)nc2n1-c1cccc(C(C)(C)O)n1 ; viability at 0.1 µM = 94%

viability at 0.1 µM reading for Cc1csc(-c2nnc(Nc3ccc(Oc4ncccc4-c4ccnc(N)n4)cc3)c3ccccc23)c1 : 51%
